# Method Notes: in vivo
# Study Conditions: female, Swiss-Webster, mouse, in vivo, 400 mg/kg
# Procedure: In vivo meropenem concentrations in mouse serum were determined by a microbioassay utilizing Escherichia coli ATCC 25922 as the reference organism. The meropenem standard solutions ranged from 0.5 to 128 μg/ml in mouse serum. […] The bacterial inoculum was prepared and inoculated into the animals as outlined below. […] The serum concentration profiles of all the animals were analyzed by linear regression of the logarithmic-transformed data.
Recorded Endpoint: half-life (min)
Form entry: value (min) — number only.

Which measured half-life value corresponds to "C[C@@H](O)[C@H]1C(=O)N2C(C(=O)O)=C(S[C@@H]3CN[C@H](C(=O)N(C)C)C3)[C@H](C)[C@H]12" ?
19

###

# Tested on: P. aeruginosa PA 27853 and resistant isolates MR1, MR2, MR3
# Method Notes: microbe, parasite or virus in culture
# Assay type: cell-based
# Study Conditions: Pseudomonas aeruginosa, strain MR2 (Cmin/MIC 0.5, OprD− & Mex+); Etest
Parameter: MIC. Scope: all listed entries.

Worked set:
CC(C)(O/N=C(\C(=O)N[C@@H]1C(=O)N2C(C(=O)[O-])=C(C[n+]3ccccc3)CS[C@H]12)c1csc(N)n1)C(=O)O [CAZ, ceftazidime]: 2 µg/mL
C[C@H]1COc2c(N3CCN(C)CC3)c(F)cc3c(=O)c(C(=O)O)cn1c23 [levofloxacin]: 4 µg/mL
C[C@@H](O)[C@H]1C(=O)N2C(C(=O)O)=C(SCCN=CN)C[C@H]12 [IPM, imipenem]: > 32 µg/mL
CCN1CCN(C(=O)N[C@@H](C(=O)N[C@@H]2C(=O)N3[C@@H]2SC(C)(C)[C@@H]3C(=O)O)c2ccccc2)C(=O)C1=O [PIP, piperacillin]: 8 µg/mL

Now, please, on to the next compound.
Test system P. aeruginosa PA 27853 and resistant isolates MR1, MR2, MR3; read-out MIC; what value for NC[C@H]1O[C@H](O[C@H]2[C@H](O)[C@@H](O[C@H]3O[C@H](CO)[C@@H](O)[C@H](N)[C@H]3O)[C@H](N)C[C@@H]2N)[C@H](N)C[C@@H]1O [TOB, tobramycin] ?
0.5 µg/mL

###

Measured MIC of individual entries
# Tested on: P. aeruginosa PA 27853 and resistant isolates MR1, MR2, MR3
# Method Notes: microbe, parasite or virus in culture
# Type: cell-based
# Study Conditions: Pseudomonas aeruginosa, strain PA 27853; Etest
Could you give me the number in µg/mL? Just the number is fine.

CC(C)(O/N=C(\C(=O)N[C@@H]1C(=O)N2C(C(=O)[O-])=C(C[n+]3ccccc3)CS[C@H]12)c1csc(N)n1)C(=O)O: 1
CCN1CCN(C(=O)N[C@@H](C(=O)N[C@@H]2C(=O)N3[C@@H]2SC(C)(C)[C@@H]3C(=O)O)c2ccccc2)C(=O)C1=O: 3
C[C@@H](O)[C@H]1C(=O)N2C(C(=O)O)=C(SCCN=CN)C[C@H]12: 3
C[C@H]1COc2c(N3CCN(C)CC3)c(F)cc3c(=O)c(C(=O)O)cn1c23: 0.75

Tell me the measured MIC of "NC[C@H]1O[C@H](O[C@H]2[C@H](O)[C@@H](O[C@H]3O[C@H](CO)[C@@H](O)[C@H](N)[C@H]3O)[C@H](N)C[C@@H]2N)[C@H](N)C[C@@H]1O" , please.
0.5

###

# Method Notes: in vivo
# Study Conditions: female, Swiss-Webster, mouse, in vivo, 400 mg/kg
Recorded Endpoint: Cmax (µg/mL)
Field: numeric (µg/mL). Do not append units.

For "C[C@@H](O)[C@H]1C(=O)N2C(C(=O)O)=C(S[C@@H]3CN[C@H](C(=O)N(C)C)C3)[C@H](C)[C@H]12" , what is its reported Cmax?
354

###

As shown below, each of these compounds has a reported MIC value.
# Test system: P. aeruginosa PA 27853 and resistant isolates MR1, MR2, MR3
# Method Notes: microbe, parasite or virus in culture
# Type: cell-based
# Study Conditions: Pseudomonas aeruginosa, strain MR3 (Cmin/MIC 1.7, OprD− & Mex+); Etest; read-out: MIC
Quick note: give the figure in µg/mL, leave out the unit.

Examples with answers:
CCN1CCN(C(=O)N[C@@H](C(=O)N[C@@H]2C(=O)N3[C@@H]2SC(C)(C)[C@@H]3C(=O)O)c2ccccc2)C(=O)C1=O: 32
CC(C)(O/N=C(\C(=O)N[C@@H]1C(=O)N2C(C(=O)[O-])=C(C[n+]3ccccc3)CS[C@H]12)c1csc(N)n1)C(=O)O: 4
C[C@@H](O)[C@H]1C(=O)N2C(C(=O)O)=C(SCCN=CN)C[C@H]12: 32

Field: next compound
Could you tell me which MIC is on file for "NC[C@H]1O[C@H](O[C@H]2[C@H](O)[C@@H](O[C@H]3O[C@H](CO)[C@@H](O)[C@H](N)[C@H]3O)[C@H](N)C[C@@H]2N)[C@H](N)C[C@@H]1O" ?
0.5
